assay-comment: in vitro
Type: in vitro ADME, human
assay-context: human, Caco-2, pH 5, RB→A/A→B
observed-property: efflux ratio at 180 min, 50 μg/mL

- compound: "C[C@@H]1CC[C@]2(C(=O)O)CC[C@]3(C)C(=CC[C@@H]4[C@@]5(C)C[C@@H](O)[C@@H](O)C(C)(C)[C@@H]5CC[C@]43C)[C@@H]2[C@]1(C)O"
  obs-value: 1.16
- compound: "O=C(/C=C/c1ccc(O)cc1)OC[C@H]1O[C@@H](Oc2c(-c3ccc(O)cc3)oc3cc(O)cc(O)c3c2=O)[C@H](O)[C@@H](O)[C@@H]1O [Tiliroside]"
  obs-value: 1.18

---

assay-comment: in vitro
Assay type: in vitro ADME, human
assay-context: human, Caco-2, pH 6, Papp × 10^−4 (cm/s) (B→A)
observed-property: Papp B→A at 180 min, 50 μg/mL (×10⁻⁶ cm/s)
Give the value, in units of ×10⁻⁶ cm/s, as a plain number.

Lookup result for O=C(/C=C/c1ccc(O)cc1)OC[C@H]1O[C@@H](Oc2c(-c3ccc(O)cc3)oc3cc(O)cc(O)c3c2=O)[C@H](O)[C@@H](O)[C@@H]1O [Tiliroside] ; measured Papp B→A at 180 min, 50 μg/mL: 568

---

assay-comment: in vitro
Assay type: in vitro ADME, human
assay-context: human, Caco-2, pH 5, Papp × 10^−4 (cm/s) (B→A)
observed-property: Papp B→A at 180 min, 50 μg/mL (nm/s)
Quick note: give the figure in nm/s, leave out the unit.

Papp B→A at 180 min, 50 μg/mL in this record for O=C(/C=C/c1ccc(O)cc1)OC[C@H]1O[C@@H](Oc2c(-c3ccc(O)cc3)oc3cc(O)cc(O)c3c2=O)[C@H](O)[C@@H](O)[C@@H]1O [Tiliroside] : 4480

---

assay-comment: in vitro
Assay type: in vitro ADME, human
assay-context: human, Caco-2, pH 6, Papp × 10^−4 (cm/s) (A→B)
observed-property: Papp A→B at 180 min, 100 μg/mL (×10⁻⁶ cm/s)
Expressed in ×10⁻⁶ cm/s, but write only the number.

Record O=C(/C=C/c1ccc(O)cc1)OC[C@H]1O[C@@H](Oc2c(-c3ccc(O)cc3)oc3cc(O)cc(O)c3c2=O)[C@H](O)[C@@H](O)[C@@H]1O [Tiliroside] . Reported Papp A→B at 180 min, 100 μg/mL: 468

---

assay-comment: in vitro
Type: in vitro ADME, human
assay-context: human, Caco-2, pH 5, Papp × 10^−4 (cm/s) (A→B)
observed-property: Papp A→B at 180 min, 150 μg/mL (×10⁻⁶ cm/s)
Express your answer in ×10⁻⁶ cm/s, writing the number without its unit.

The reported Papp A→B at 180 min, 150 μg/mL of the compound O=C(/C=C/c1ccc(O)cc1)OC[C@H]1O[C@@H](Oc2c(-c3ccc(O)cc3)oc3cc(O)cc(O)c3c2=O)[C@H](O)[C@@H](O)[C@@H]1O [Tiliroside] was 649

---

assay-comment: in vitro
Assay type: in vitro ADME, human
assay-context: human, Caco-2, pH 8, RB→A/A→B
observed-property: efflux ratio at 180 min, 100 μg/mL
// response body must contain only the number

Measured efflux ratio at 180 min, 100 μg/mL, O=C(/C=C/c1ccc(O)cc1)OC[C@H]1O[C@@H](Oc2c(-c3ccc(O)cc3)oc3cc(O)cc(O)c3c2=O)[C@H](O)[C@@H](O)[C@@H]1O [Tiliroside] : 1.04
